- System: HCV 1a-H77 subgenomic replicon
- method: microbe, parasite or virus in culture
- Assay type: cell-based, HCV genotype 1a
- condition notes: Hepatitis C virus, stable replicon, strain 1a H77, 5% FBS; read-out: 1a H77 5% FBS EC50
pEC50: −log10 of the molar value.
property name: pEC50

                                   compound  experimental_result
0  CS(=O)(=O)N(Cc1ccccc1)c1ccc2c(-c3ncc[nH]3)c(-c3ccccc3)oc2c1 [Example 21]                 5.46
1  CC(=O)CCCN(c1cc2oc(-c3ccc(F)cc3)c(-c3ncc[nH]3)c2cc1C1CC1)S(C)(=O)=O [Example 73]                 8.10
2  CS(=O)(=O)N(CCC/C(N)=N/O)c1cc2oc(-c3ccc(F)cc3)c(-c3ncc[nH]3)c2cc1C1CC1 [Example 176]                 7.44
3  CC(C)(O)C(O)CCN(c1cc2oc(-c3ccc(F)cc3)c(C3=NOCN3)c2cc1C1CC1)S(C)(=O)=O (stereo not shown) [Example 146]                 7.90

Source listed as patent US20160355530A1.
